molecular target: IRAK4 (Homo sapiens (Human), UniProt Q9NWZ3)
Sequence (Q9NWZ3 whole entry, species assumed): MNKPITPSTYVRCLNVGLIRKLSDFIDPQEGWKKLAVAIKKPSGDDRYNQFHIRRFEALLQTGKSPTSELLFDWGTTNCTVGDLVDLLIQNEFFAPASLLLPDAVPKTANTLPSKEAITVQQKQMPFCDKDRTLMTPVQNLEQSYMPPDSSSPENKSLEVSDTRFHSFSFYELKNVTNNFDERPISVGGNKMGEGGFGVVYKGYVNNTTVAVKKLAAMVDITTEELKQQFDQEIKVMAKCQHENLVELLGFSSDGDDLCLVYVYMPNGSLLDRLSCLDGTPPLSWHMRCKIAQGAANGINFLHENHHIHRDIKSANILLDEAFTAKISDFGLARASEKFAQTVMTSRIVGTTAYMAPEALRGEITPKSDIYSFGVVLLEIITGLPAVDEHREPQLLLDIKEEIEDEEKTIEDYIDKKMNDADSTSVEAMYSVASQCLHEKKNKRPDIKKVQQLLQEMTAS
pIC50: −log10 of the molar value.
Assay Metric: pIC50

[[record]]
compound_structure = "CC(C)(O)CCNC(=O)c1cnc2sc(-c3cccnc3)nc2c1NC1CCOCC1"
measured = 6.78

[[record]]
compound_structure = "CC(C)Nc1c(C(=O)NC[C@@H](F)C(C)(C)O)cnc2sc(-c3cscn3)cc12"
measured = 7.45

[[record]]
compound_structure = "CCOCCNC(=O)c1cnc2sc(-c3cncs3)cc2c1NC(C)C"
measured = 7.77

[[record]]
compound_structure = "CC(C)Nc1c(C(=O)N[C@H]2CC[C@H](N)CC2)cnc2sc(-c3cncs3)cc12"
measured = 7.91


---

tested on: IL-6 levels in human whole blood stimulated with a TLR2 agonist (lipoteichoic acid); assay: IRAK4 Whole Blood Assay; type: cell-based; settings: 10 μg/mL lipoteichoic acid for 5 hours, IL-6 readout
Recorded EC50 by entry
Assay Metric: EC50 (µM)

[[record]]
compound_structure = "CC(C)Nc1c(-c2cn(CCCO)nn2)cnc2sc(-c3ccc(=O)[nH]c3)cc12"
assay_metric = "EC50"
measurement_units = "µM"
censoring_operator = "="
measured = 0.42

[[record]]
compound_structure = "CC(C)CCNC(=O)c1cnc2sc(-c3cncs3)cc2c1NC(C)C"
assay_metric = "EC50"
measurement_units = "µM"
censoring_operator = ">"
measured = 20

[[record]]
compound_structure = "CC(C)Nc1c(C(=O)NC[C@@H](F)C(C)(C)O)cnc2sc(-c3cncs3)cc12"
assay_metric = "EC50"
measurement_units = "µM"
censoring_operator = "="
measured = 0.58

[[record]]
compound_structure = "CC(C)(O)[C@H](F)CNC(=O)c1cnc2sc(-c3cncs3)cc2c1NC1COC1"
assay_metric = "EC50"
measurement_units = "µM"
censoring_operator = "="
measured = 3.65

[[record]]
compound_structure = "CC(C)Nc1c(C(=O)NCCN2CCS(=O)(=O)CC2)cnc2sc(-c3cncs3)cc12"
assay_metric = "EC50"
measurement_units = "µM"
censoring_operator = ">"
measured = 20

[[record]]
compound_structure = "CCOCCNC(=O)c1cnc2sc(-c3cncs3)cc2c1NC(C)C"
assay_metric = "EC50"
measurement_units = "µM"
censoring_operator = ">"
measured = 20

[[record]]
compound_structure = "CC(C)Nc1c(-c2cn(CCCO)nn2)cnc2sc(-c3cncs3)cc12"
assay_metric = "EC50"
measurement_units = "µM"
censoring_operator = ">"
measured = 10

[[record]]
compound_structure = "COC(=O)N[C@H]1CC[C@H](NC(=O)c2cnc3sc(-c4cncs4)cc3c2NC(C)C)CC1"
assay_metric = "EC50"
measurement_units = "µM"
censoring_operator = "="
measured = 5.31


---

system: IL-6 levels in human whole blood stimulated with a TLR2 agonist (lipoteichoic acid); test: IRAK4 Whole Blood Assay; assay type: cell-based; details: 10 μg/mL lipoteichoic acid for 5 hours, IL-6 readout
pEC50: −log10 of the molar value.
This listing pairs compounds with measured pEC50.
Assay Metric: pEC50

[[record]]
compound = "CC(C)Nc1c(C(=O)NC[C@@H](F)C(C)(C)O)cnc2sc(-c3cn[nH]c3)cc12 [Example 21]"
assay_metric = "pEC50"
measured = "< 4.70"

[[record]]
compound = "CC(C)Nc1c(-c2cn(CC3CC3)nn2)cnc2sc(-c3cncs3)cc12 [Example 78]"
assay_metric = "pEC50"
measured = "< 4.70"

[[record]]
compound = "CC(C)Nc1c(C(=O)NCCc2ccncc2)cnc2sc(-c3ccc(=O)[nH]c3)cc12 [Example 71]"
assay_metric = "pEC50"
measured = "< 4.70"

[[record]]
compound = "CC(O)CCNC(=O)c1cnc2sc(-c3cncs3)cc2c1NC(C)C (stereo not shown) [Example 60]"
assay_metric = "pEC50"
measured = "< 5.00"


---

system: IL-6 levels in human whole blood stimulated with a TLR2 agonist (lipoteichoic acid); assay: IRAK4 Whole Blood Assay; type: cell-based; details: 10 μg/mL lipoteichoic acid for 5 hours, IL-6 readout
Below, each entry is listed with its recorded EC50.
Assay Metric: EC50

[[record]]
compound_structure = "CC(C)Nc1c(C(=O)NCCc2cccnc2)cnc2sc(-c3ccc(=O)[nH]c3)cc12"
target_of_assay = "IL-6 levels in human whole blood stimulated with a TLR2 agonist (lipoteichoic acid)"
measured = "> 20 µM"

[[record]]
compound_structure = "CC(C)Nc1c(C(=O)NC[C@@H](F)C(C)(C)O)cnc2sc(-c3ccnnc3)cc12"
target_of_assay = "IL-6 levels in human whole blood stimulated with a TLR2 agonist (lipoteichoic acid)"
measured = "> 20 µM"

[[record]]
compound_structure = "CC(C)Nc1c(C(=O)NC[C@@H](F)C(C)(C)O)cnc2sc(-c3cccc(C#N)c3)cc12"
target_of_assay = "IL-6 levels in human whole blood stimulated with a TLR2 agonist (lipoteichoic acid)"
measured = "> 20 µM"

[[record]]
compound_structure = "CC(C)Nc1c(C(=O)NCc2ncn[nH]2)cnc2sc(-c3cncs3)cc12"
target_of_assay = "IL-6 levels in human whole blood stimulated with a TLR2 agonist (lipoteichoic acid)"
measured = "> 20 µM"

[[record]]
compound_structure = "CC(C)Nc1c(C(=O)NC[C@@H](F)C(C)(C)O)cnc2sc(-c3ccc(C#N)nc3)cc12"
target_of_assay = "IL-6 levels in human whole blood stimulated with a TLR2 agonist (lipoteichoic acid)"
measured = "> 20 µM"

[[record]]
compound_structure = "CC(C)Nc1c(C(=O)NC[C@@H](F)C(C)(C)O)cnc2sc(-c3cnc(N)s3)cc12"
target_of_assay = "IL-6 levels in human whole blood stimulated with a TLR2 agonist (lipoteichoic acid)"
measured = "> 10 µM"


Values were extracted from patent US12304916B2.
